Measured values drawn from ChEMBL document CHEMBL2086391 for this set.

- PROCEDURE_SUMMARY: Selectivity index, ratio of CC50 for african green monkey Vero cells to EC50 for HSV-1F ATCC 733 by plaque reduction assay
- Format: toxicity, cell-based
- REPORTED_CONDITIONS: read-out: Ratio CC50/EC50
MEASURED_PARAMETER: selectivity ratio
Answer field: number only, no words.

Field request: selectivity ratio | item: O=C(NCCO)c1c(N2CCCCC2)cc(-c2ccccc2)oc1=O 12.8

###

- PROCEDURE_SUMMARY: Cytotoxicity against african green monkey Vero cells after 2 days by MTT assay
- Assay type: cell-based
- REPORTED_CONDITIONS: chlorocebus sabaeus
# Lookup of reported CC50 at 48 h keyed by entry
Numeric only. Scale: µg/mL

• Cc1ccc(NC(=O)c2c(N3CCCC3)cc(-c3ccccc3)oc2=O)cc1 = 56.5
• Nc1nc2c(ncn2COCCO)c(=O)[nH]1 = 130
• O=C(NCCO)c1c(N2CCCC2)cc(-c2ccccc2)oc1=O = 30

Field request: CC50 at 48 h | item: O=C(Nc1ccccc1)c1c(N2CCCC2)cc(-c2ccccc2)oc1=O 37.5

Field request: CC50 at 48 h | item: O=C(NCCO)c1c(N2CCCCC2)cc(-c2ccccc2)oc1=O 52.5
